Target: human uPAR displayed on the surface of MDA-MB-231 cells (human, UniProt Q03405 23-305)
Sequence (Q03405 23-305): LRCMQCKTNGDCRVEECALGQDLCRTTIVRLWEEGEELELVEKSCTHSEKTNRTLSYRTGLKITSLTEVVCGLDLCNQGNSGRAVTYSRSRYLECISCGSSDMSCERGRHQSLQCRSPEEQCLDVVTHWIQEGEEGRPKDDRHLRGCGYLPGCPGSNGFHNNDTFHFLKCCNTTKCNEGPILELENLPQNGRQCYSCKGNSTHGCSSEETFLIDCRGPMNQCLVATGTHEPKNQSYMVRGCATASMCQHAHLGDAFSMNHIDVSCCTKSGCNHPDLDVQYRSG
Assay: cell-based or functional assay
outcome_measure: ADC Cytotoxicity Max %
Write your answer as a measured quantity: the number, then the unit.

These solved cases illustrate the format of a correct answer.
1) Antibody 3159 (antibody, human IgG1, V domains shown, Chimeric: mouse VH/VL linked to Herceptin (trastuzumab) human IgG1 / kappa constant regions) VH: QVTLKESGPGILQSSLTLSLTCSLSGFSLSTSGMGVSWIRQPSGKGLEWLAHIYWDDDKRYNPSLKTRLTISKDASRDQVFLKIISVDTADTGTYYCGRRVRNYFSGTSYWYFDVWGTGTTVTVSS VL: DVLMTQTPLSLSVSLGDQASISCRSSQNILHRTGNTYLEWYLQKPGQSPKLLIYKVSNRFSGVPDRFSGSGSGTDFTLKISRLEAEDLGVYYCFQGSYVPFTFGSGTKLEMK; 32%
2) Antibody 3595 (antibody, human IgG1, V domains shown, Chimeric: mouse VH/VL linked to Herceptin (trastuzumab) human IgG1 / kappa constant regions) VH: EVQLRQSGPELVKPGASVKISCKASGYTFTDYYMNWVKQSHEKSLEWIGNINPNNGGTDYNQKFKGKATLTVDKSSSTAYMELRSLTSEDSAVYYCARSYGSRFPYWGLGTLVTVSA VL: DIQMTQTTSSLSASLGDRVTISCRASQDITNYLSWYQQKPDGTVKLLIFYTSFLQSGVPLRFSGSGSGADYSLTISNLEQEDFATYFCQQGHTLPWTFGGGTKLEIK; 34.8%
3) Antibody 11857 (antibody, human IgG1, V domains shown) VH: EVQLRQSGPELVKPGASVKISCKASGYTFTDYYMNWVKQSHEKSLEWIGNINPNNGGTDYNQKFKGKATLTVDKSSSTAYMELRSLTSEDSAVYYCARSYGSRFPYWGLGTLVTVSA VL: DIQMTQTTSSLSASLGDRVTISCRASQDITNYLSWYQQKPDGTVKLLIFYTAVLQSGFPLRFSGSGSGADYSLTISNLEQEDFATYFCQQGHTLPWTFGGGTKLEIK; 35.2%

--- query ---
Identify ADC Cytotoxicity Max % associated with the binder Antibody 8163 (antibody, human IgG1, V domains shown, Chimeric: mouse VH/VL linked to Herceptin (trastuzumab) human IgG1 / kappa constant regions) VH: EVQLVESGGGLVQPGESLTLSCDSNEFDFPSHDMSWVRKTPEKRLELVAAIDSDGGLTYYSNSRERRFIISRDNTKNTLYLQMRSLRSEDTALYYCARRRASYWYFDVWGTGTTVTVSS VL: DILLTQSPAILPVSPGERVSFSCRASQNIGTSIHWYQQRTNGSPRLLIKYASESISGIPSRFSGSGSGTDFTLSINGVESEDIGDYYCQQSNSWPTFGGGTKLEIK
28.7%

Data provenance is patent US20260116983A1.
